// values below are reported MIC
- Tested on: Bacillus subtilis
- MEASUREMENT PROTOCOL: Antibacterial activity against Bacillus subtilis ATCC 6633 after 24 hrs by MTT assay
- Type: functional
- TEST CONTEXT: ATCC 6633, 24 h

COC(=O)Cc1ccccc1OC(=O)c1ccccc1Cl	> 50 µg/mL
CCOC(=O)Cc1ccccc1OC(=O)Cc1ccc(OCC)c(OCC)c1	12.5 µg/mL

Let us move to another entry and its MIC.
Item `COC(=O)Cc1ccccc1OC(=O)Cc1ccc(Cl)cc1` has what recorded MIC?
12.5 µg/mL

###

- Test system: Bacillus subtilis
- MEASUREMENT PROTOCOL: Antibacterial activity against Bacillus subtilis ATCC 6633 after 24 hrs by MTT assay
- Assay type: functional
- TEST CONTEXT: ATCC 6633, 24 h
READOUT KIND: MIC (µg/mL)
Report as a plain number; the unit µg/mL is understood.

For orientation, consider the following solved cases.
CCOC(=O)Cc1ccccc1OC(=O)c1cccc([N+](=O)[O-])c1	0.78
CCOC(=O)Cc1ccccc1OC(=O)Cc1cccc(Cl)c1	3.12
COC(=O)c1ccc(O)cc1 [METHYLPARABEN]	6.25
CC1(C)S[C@@H]2[C@H](NC(=O)Cc3ccccc3)C(=O)N2[C@H]1C(=O)O [PENICILLIN G]	1.56
CCOC(=O)Cc1ccccc1O	6.25

Given the entry CN[C@H](CC(C)C)C(=O)N[C@H]1C(=O)N[C@@H](CC(N)=O)C(=O)N[C@H]2C(=O)N[C@H]3C(=O)N[C@H](C(=O)N[C@H](C(=O)O)c4cc(O)cc(O)c4-c4cc3ccc4O)[C@H](O)c3ccc(c(Cl)c3)Oc3cc2cc(c3O[C@@H]2O[C@H](CO)[C@@H](O)[C@H](O)[C@H]2O[C@H]2C[C@](C)(N)[C@H](O)[C@H](C)O2)Oc2ccc(cc2Cl)[C@H]1O.Cl [VANCOMYCIN HYDROCHLORIDE] , report its measured MIC.
0.39

Same question, `CCOC(=O)Cc1ccccc1OC(=O)Cc1ccc(Br)cc1` this time
12.5

Cool, now `COC(=O)Cc1ccccc1OC(=O)Cc1ccc(Br)cc1`
6.25

Please do the same for `COC(=O)Cc1ccccc1OC(=O)c1cccc([N+](=O)[O-])c1` as well.
0.78

Another compound to check: `CCOC(=O)Cc1ccccc1OC(=O)Cc1cccc(Br)c1`
1.56

Could you do the same for `CCOC(=O)Cc1ccccc1OC(=O)c1ccc(C)cc1` , please?
25

`COC(=O)Cc1ccccc1OC(=O)Cc1ccc(F)cc1` ?
6.25

Likewise for `COC(=O)Cc1ccccc1OC(=O)Cc1cccc(Cl)c1` ?
3.12
